The following compounds are shown together with reported pIC50 values.
molecular target: GPR6 (Homo sapiens); construct: expressed in transfected cells; host or cells: CHO cells; assay: GPR6 antagonist functional cAMP assay (LANCE Ultra cAMP TR-FRET, CHO cells stably expressing GPR6); assay type: cell-based; details: procedure of Example 24
Sequence (P46095 whole entry): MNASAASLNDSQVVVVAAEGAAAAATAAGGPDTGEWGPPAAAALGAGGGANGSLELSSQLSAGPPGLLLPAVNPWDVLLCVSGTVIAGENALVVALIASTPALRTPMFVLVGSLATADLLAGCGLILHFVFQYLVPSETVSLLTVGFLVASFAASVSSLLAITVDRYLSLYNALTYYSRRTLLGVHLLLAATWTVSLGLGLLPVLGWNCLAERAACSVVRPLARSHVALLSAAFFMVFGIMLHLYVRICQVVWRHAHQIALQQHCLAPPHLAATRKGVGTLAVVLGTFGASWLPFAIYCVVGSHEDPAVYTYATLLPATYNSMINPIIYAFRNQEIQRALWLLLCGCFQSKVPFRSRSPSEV
pIC50: −log10 of the molar value.

compound | assay-readout | reported-value
Cn1cc(-c2nc3cnc([C@H](O)C(C)(C)F)cc3nc2N2CCC(Oc3ccc(F)cc3F)CC2)cn1 (single isomer, unassigned) | pIC50 | 6.00 to 7.00
CC(C)(O)C(C)(O)c1cc2nc(-c3cnn(C(F)F)c3)c(N3CCC(Oc4ccc(F)cc4F)CC3)nc2cn1 (stereo not drawn) | pIC50 | > 7.00
CO[C@H](CO)c1cc2nc(N3CCC(Oc4ccc(F)cc4F)CC3)c(-c3cnn(C)c3)nc2cn1 (single isomer, unassigned) | pIC50 | 6.00 to 7.00
CCn1cc(-c2nc3c(nc2N2CCC(Oc4ccc(F)cc4F)CC2)CCN(S(=O)(=O)C(C)C)C3)cn1 | pIC50 | > 7.00
CC(C)(O)Cc1cc2nc(-c3cnn(C(F)F)c3)c(N3CCC(Oc4ccc(F)cc4F)CC3)nc2cn1 | pIC50 | 6.00 to 7.00

I would be grateful if you could share the reported pIC50 for `CC(=O)N1CCc2nc(N3CCN(Cc4ccc(C#N)cc4F)CC3)c(-c3cnn(C)c3)nc2C1` .
4.52 to 6.00

Now try `CCn1cc(-c2nc3cnccc3nc2N2CCC(Oc3cc(Cl)ccc3Cl)CC2)cn1` .
> 7.00

What would you report for CC(C)(O)C(C)(O)c1cc2nc(-c3cnn(C(F)F)c3)c(N3CCN(Cc4ccccc4F)CC3)nc2cn1 (single isomer, unassigned) [Compound 708] ?
6.00 to 7.00
